- method: Cytotoxicity MTT assay, FCWF cells
- Format: cell-based, feline
- condition set: cat, FCWF cells
measured attribute: CC50 at 3 days

CC50 at 3 days measured on CN[C@@H]1[C@H](O[C@@H]2OC[C@@H](O)[C@H](O)[C@H]2O)[C@@H](O)[C@H](O[C@H]2c3cc(C)c(C(=O)N[C@H](C)C(=O)O)c(O)c3-c3c(cc4c(c3O)C(=O)c3cc(OC)cc(O)c3C4=O)[C@@H]2O)O[C@@H]1C [PRM-A, pradimicin-A, reference compound] = > 120 µM

* * *

- method: Cytotoxicity MTT assay, Vero cells
- Assay type: cell-based, simian
- condition set: monkey (simian), Vero cells
measured attribute: CC50 at 3 days
Remember to follow the number with its unit.

CC50 at 3 days measured on CN[C@@H]1[C@H](O[C@@H]2OC[C@@H](O)[C@H](O)[C@H]2O)[C@@H](O)[C@H](O[C@H]2c3cc(C)c(C(=O)N[C@H](C)C(=O)O)c(O)c3-c3c(cc4c(c3O)C(=O)c3cc(OC)cc(O)c3C4=O)[C@@H]2O)O[C@@H]1C [PRM-A, pradimicin-A, reference compound] = 120 µM
